Where do these numbers come from? They come from paper PMC10053770.

- Test: Single-dose intravenous pharmacokinetics in rats
- Type: in vivo, rat
- Test Parameters: male; Sprague-Dawley rat, M, n=6, 5 mg/kg single IV; plasma LC/MS/MS, non-compartmental; one time point per animal
Measurement Kind: AUC(0-inf)
A bare number is not enough; add the unit after it.

Asked: Provide measured AUC(0-inf) value, entry: `CC(=O)N[C@H]1CSSC[C@@H](C(N)=O)NC(=O)[C@H](CC(=O)O)NC(=O)[C@@H]2CCCN2C(=O)CNC(=O)[C@H](CCCCN)NC(=O)[C@H](CC(=O)O)NC(=O)CNC(=O)[C@H](CCCNC(=N)N)NC1=O`
Given back: 9060 ng·h/mL
